Data origin, for the record: patent US20220135622A1

MIC K. pneumoniae listing for selected substances.
Tested on: K. pneumoniae
Assay type: cell-based, Klebsiella pneumoniae
Conditions: Table 8
Procedure: Bacterial growth conditions. […] Peptide sensitivity and MIC assays. […] After 4 h, an equal volume (10 μL) of BacTiter-Glo™ (Promega) was added to each well and luminescence was read after 5 min on an EnVision plate reader (PerkinElmer). […] Plates were incubated at 37° C. for 20 h before measuring OD600 with an EnVision plate reader.
MEASURED QUANTITY: MIC K. pneumoniae (µM)

1) Ac-YPMTFRRFLAKWGLLR-NH2 [compound 87]: 25.0
2) Ac-YPMTARRFLAKWGLLR-NH2 [compound 57]: 400
3) Ac-RPMTMRRFLEKWGL-NH2 [compound 206]: 200.0
4) Ac-YPMTARRYLEKWGLLR-NH2 [compound 56]: 800
5) Ac-YPMSARRFLEKWGLLR-NH2 [compound 49]: 800
6) Ac-YPMTFRRFLEKWGLLR-NH2 [compound 59]: 800
7) Ac-YPMTARRFLQKWGLLR-NH2 [compound 72]: 400
